Reference source: patent US20260183370A1

# tested on: T1, NPR-B receptor (natriuretic peptide receptor B), endogenous on NIH-3T3 cells (murine (endogenous in NIH-3T3 cells), UniProt Q6VVW5 17-1047)
# T1 sequence (looked up): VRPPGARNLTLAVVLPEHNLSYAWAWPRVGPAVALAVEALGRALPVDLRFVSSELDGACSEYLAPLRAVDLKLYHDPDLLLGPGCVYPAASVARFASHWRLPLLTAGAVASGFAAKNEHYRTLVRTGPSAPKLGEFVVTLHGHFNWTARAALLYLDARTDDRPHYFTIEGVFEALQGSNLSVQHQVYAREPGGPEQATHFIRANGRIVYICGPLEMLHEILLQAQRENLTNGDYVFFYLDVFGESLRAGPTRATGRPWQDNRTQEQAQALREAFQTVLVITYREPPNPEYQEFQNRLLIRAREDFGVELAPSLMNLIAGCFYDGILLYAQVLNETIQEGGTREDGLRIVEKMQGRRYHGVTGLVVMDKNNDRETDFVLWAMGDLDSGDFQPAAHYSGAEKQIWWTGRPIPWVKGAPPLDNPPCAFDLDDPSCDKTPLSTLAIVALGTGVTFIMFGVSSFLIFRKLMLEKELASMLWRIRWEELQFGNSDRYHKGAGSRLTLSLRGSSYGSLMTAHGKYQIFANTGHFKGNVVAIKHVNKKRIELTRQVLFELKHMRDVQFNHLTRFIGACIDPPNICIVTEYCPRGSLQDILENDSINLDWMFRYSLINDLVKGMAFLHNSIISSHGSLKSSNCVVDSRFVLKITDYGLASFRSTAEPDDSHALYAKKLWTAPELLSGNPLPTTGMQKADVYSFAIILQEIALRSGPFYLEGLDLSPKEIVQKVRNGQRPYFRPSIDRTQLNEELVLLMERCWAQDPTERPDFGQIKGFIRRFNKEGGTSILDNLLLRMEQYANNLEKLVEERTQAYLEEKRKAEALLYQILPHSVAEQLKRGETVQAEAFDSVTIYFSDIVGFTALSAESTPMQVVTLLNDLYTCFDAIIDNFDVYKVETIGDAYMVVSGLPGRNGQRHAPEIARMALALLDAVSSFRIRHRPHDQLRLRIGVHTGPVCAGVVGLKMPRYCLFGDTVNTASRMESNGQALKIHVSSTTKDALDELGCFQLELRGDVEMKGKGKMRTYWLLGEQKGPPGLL
# measurement description: cell-based or functional assay
Bridge positions count the residues as written; N and C are the ends. Side chains are listed from the residue outwards. Ends that are not written are not given here. * marks the point of attachment. Hexanoyl(6-maleimido) = O=C1C=CC(=O)N1CCCCCC(=O)*; reversible prodrug linker = not defined here
property label: EC50 compound/EC50 CNP-38 (residual NPR-B activity, cGMP production in NIH-3T3 cells)

| binder | data value |
| --- | --- |
| LQEHPNARKYKGANKKGLSKGCFGLKLDRIGSMSGLGC (disulfide 22-38; not fully specified (residue 26)) [Permanent Lys26 CNP-38 PEG4x10 kDa conjugate 12g] | > 100 ratio |
| LQEHPNARKYKGANKKGLSKGCFGLK([reversible prodrug linker-4x10 kDa PEG])LDRIGSMSGLGC (disulfide 22-38; reading uncertain, This is a reversible conjugate with an in vitro release half-life of 9.5 d) [Reversible Lys26 CNP-38 PEG4x10 kDa conjugate 11i] | > 100 ratio |
| LQEHPNARKYKGANKKGLSKGCFGLKLDRIGSMSGLGC (5 kDa PEG stably attached through maleimidohexanoyl/thiol to the side chain of Lys26 (ring lysine); disulfide Cys22-Cys38) [Permanent Lys26 CNP-38 PEG 5 kDa conjugate 19e] | > 100 ratio |
| LQEHPNARKYKGANKKGLSKGCFGLKLDRIGSMSGLGC (disulfide 22-38; not fully specified (residue 26), This is a reversible conjugate with an in vitro release half-life of 8.5 d) [Reversible Lys26 CNP-38 PEG2x20 kDa conjugate 10f] | > 100 ratio |
| {PEG 5 kDa-Hexanoyl(6-maleimido)}-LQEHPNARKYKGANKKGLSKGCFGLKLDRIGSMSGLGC (disulfide 22-38) [Permanent N-terminal CNP-38 PEG 5 kDa conjugate 15e] | > 5 ratio |
